The reported numbers originate from patent US11485736B2.

EXPERIMENT_DESCRIPTION: ADME solubility determination at pH 2.0 and pH 7.4
Format: physicochemical
CONDITION_NOTES: aqueous buffer, thermodynamic from solid; PBS pH 2.0, shaken at 25° C. for 24 hours, LC-MS/MS; read-out: Solubility at pH 2.0
RESULT_TYPE: solubility at 24 h

See these solved cases before continuing.
COMPOUND	solubility at 24 h
CCn1cc(C(F)(F)F)nc1-c1ccc(Cn2nc(SC)c3cnc(-c4c(OC)ncnc4C4CC4)nc32)cc1	< 10 µM
COc1cc(Cn2ncc3cnc(-c4c(OC)ncnc4C4CC4)nc32)ccc1-c1nc(C(F)(F)F)cn1CCF	> 10 µM
COc1ncnc(C2CC2)c1-c1ncc2cnn(Cc3ccc(-c4nc5c(F)cccc5n4C)cc3)c2n1	> 10 µM
COc1ncnc(C2CC2)c1-c1ncc2cnn(Cc3ccc(-n4nc(C(F)(F)F)cc4N(C)C)cc3)c2n1	< 10 µM
COCc1nc2cnc(-c3c(OC)ncnc3C3CC3)nc2n1Cc1ccc(-c2nc(C(F)(F)F)cn2C(C)C)cc1	> 10 µM

Entry under test: COc1ncnc(C2CC2)c1-c1ncc2cnn(Cc3ccc(-c4nc(C(F)(F)F)c(OC)n4C)cc3)c2n1 . Its solubility at 24 h was < 10 µM

So for COc1ncnc(C2CC2)c1-c1ncc2cnn(Cc3ccc(-n4nc(C(F)F)cc4C)cc3)c2n1 , the logged solubility at 24 h turned out to be < 10 µM

Notebook: COc1ncnc(C2CC2)c1-c1ncc2cnn(Cc3ccc(-c4cn(C(C)C)c(C(F)(F)F)n4)cc3)c2n1 , solubility at 24 h read as < 10 µM

Field solubility at 24 h (entry CCn1cc(C(F)(F)F)nc1-c1ccc(Cn2ncc3cnc(-c4c(OC5CC5)ncnc4C4CC4)nc32)cc1 ) reads > 10 µM

COc1ncnc(OC)c1-c1ncc2cnn(Cc3ccc(-c4nc(C(F)(F)F)cn4C(C)C)cc3)c2n1 has a reported solubility at 24 h of > 10 µM

Please fill in: solubility at 24 h reported for CCn1cc(C(F)(F)F)nc1-c1ccc(Cn2ncc3cnc(-c4c(OC)ncnc4C4CC4)nc32)cc1OC = > 10 µM

# solubility at 24 h of COc1nc(N)nc(C2CC2)c1-c1ncc2cnn(Cc3ccc(-n4nc(C(F)(F)F)cc4C)cc3)c2n1 = > 10 µM

// COc1ncnc(C2CC2)c1-c1ncc2c(OC)nn([C@@H](C)c3ccc(-c4nc(C(F)(F)F)cn4CCF)cc3)c2n1 : solubility at 24 h value = < 10 µM

Entry CCn1cc(C(F)(F)F)nc1-c1ccc(Cn2nc(OC)c3cnc(-c4c(OC)ncnc4C4CC4)nc32)cc1F ; solubility at 24 h = < 10 µM

In plain terms, CCn1cc(C(F)(F)F)nc1-c1ccc(Cn2ncc3cnc(-c4c(OC)cnn4C4CCC4)nc32)cc1 has a documented solubility at 24 h of < 10 µM

Just so you know, measured solubility at 24 h for COc1ncnc(C2CC2)c1-c1ncc2nc(C)n(Cc3ccc(-n4nc(C(F)(F)F)cc4C)cc3)c2n1 came out at > 10 µM

Item: COc1ncnc(C2CC2)c1-c1ncc2cnn(Cc3ccc(-c4nc(C(F)(F)F)cn4C(C)CF)cc3)c2n1 (centres unmarked) | solubility at 24 h: > 10 µM

Item: COc1ncnc(C2CC2)c1-c1ncc2cnn(Cc3ccc(-n4nc(C(F)(F)F)cc4-c4ccco4)cc3)c2n1 | solubility at 24 h: < 10 µM

Input COc1ncnc(C2CC2)c1-c1ncc2nc(C(C)C)n(Cc3ccc(-n4nc(C(F)(F)F)cc4C)cc3)c2n1 . Output solubility at 24 h: < 10 µM

For this compound ( CC(C)Oc1ncnc(C2CC2)c1-c1ncc2cnn(Cc3ccc(-c4nc(C(F)(F)F)cn4C)cc3)c2n1 ), measured solubility at 24 h is > 10 µM

Record COc1ncnc(C2CC2)c1-c1ncc2cnn(Cc3ccc(-n4nc(C(F)(F)F)cc4C#N)cc3)c2n1 , field solubility at 24 h: < 10 µM

Entry COc1ncnc(C2CC2)c1-c1ncc2cnn(Cc3ccc(-n4nc(C(F)(F)F)cc4N(C)C)c(F)c3)c2n1 , solubility at 24 h reported as < 10 µM

# solubility at 24 h of Cc1cc(C(F)(F)F)nn1-c1ccc(Cn2ncc3cnc(-c4cccnc4C#N)nc32)cc1 = < 10 µM
